Listing of recorded protein stability index by entry.
MEASUREMENT PROTOCOL: protein stability index of a GFP-peptide fusion (yeast GPS) (PSI 1-4); higher = more stable; sorted into four equal gates, so the index is relative within each strain
CONDITION: pdr5∆
Form field (numeric): enter value without unit.

Recorded results for 4 sequences are shown here.
[[record]]
primary_sequence = "QNNEQNPIDPFNIIREF [YDL116W/NUP84]"
parameter_measured = "protein stability index"
reported_measurement = 3.15

[[record]]
primary_sequence = "EDLKNFIFQIIEITNSN [SRB8]"
parameter_measured = "protein stability index"
reported_measurement = 2.1

[[record]]
primary_sequence = "TTILSFSSPAALMKTLI [NUT1]"
parameter_measured = "protein stability index"
reported_measurement = 1.75

[[record]]
primary_sequence = "ILADEMGLGKTLQTISF [ISW2]"
parameter_measured = "protein stability index"
reported_measurement = 3.06


Entry ISLSVHTLALEFVNGGK [RRP46] ; protein stability index = 2.79

Record DASPAPSNESCSPWSLQ [SRB5] , field protein stability index: 2.43

Measured protein stability index, DLQRTQTLSEKEYQCSA [YIL149C/MLP2] : 2.97
